- TARGET_OR_TEST_SYSTEM: GST-Flk1 (Mus musculus)
- Construct: GST-Flk1cd purified from sf9 recombinant baculovirus transformation (SUGEN, Inc.); host or cells: Sf9 insect cells (recombinant baculovirus)
- Sequence (P35918 784-1345 limits assumed): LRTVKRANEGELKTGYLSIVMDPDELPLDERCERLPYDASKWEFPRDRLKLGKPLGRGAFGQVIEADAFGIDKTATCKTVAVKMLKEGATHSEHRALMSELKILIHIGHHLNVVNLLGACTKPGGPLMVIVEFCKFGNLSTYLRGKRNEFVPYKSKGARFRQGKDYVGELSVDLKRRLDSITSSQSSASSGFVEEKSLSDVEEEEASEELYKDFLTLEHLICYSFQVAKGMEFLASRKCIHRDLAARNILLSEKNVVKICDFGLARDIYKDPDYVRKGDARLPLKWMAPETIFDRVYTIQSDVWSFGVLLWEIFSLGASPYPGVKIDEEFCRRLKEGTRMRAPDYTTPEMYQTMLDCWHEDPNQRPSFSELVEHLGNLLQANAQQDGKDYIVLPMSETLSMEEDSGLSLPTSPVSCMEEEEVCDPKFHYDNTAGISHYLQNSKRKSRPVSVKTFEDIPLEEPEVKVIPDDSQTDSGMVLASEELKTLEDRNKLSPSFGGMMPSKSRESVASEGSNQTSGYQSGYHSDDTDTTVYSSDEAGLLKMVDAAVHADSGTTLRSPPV
- ASSAY_NOTES: GST-FLK-1 bioassay (ELISA, tyrosine kinase activity on poly(glu,tyr))
- Type: biochemical
OUTCOME_MEASURE: IC50 (µM)

COMPOUND: c1cc(Nc2ncc(-c3ccsc3)cn2)cc(N2CCOCC2)c1 [Example 39]
IC50 / µM: 2

[P] O=C(CN1CCCC1CN1CCCC1)Nc1cccc(Nc2ncc(-c3ccsc3)cn2)c1 (centres unmarked) [Example 47]
[Q] CC(=O)Nc1cccc(Nc2ncc(-c3ccsc3)cn2)c1 [Example 36]
[R] O=C(NCCN1CCOCC1)Nc1ccc(Nc2ncc(-c3ccsc3)cn2)cc1 [Example 31]
Challenge: Task for the reader: rank each entry by its IC50, from the minimum upward. Lab note: record answer as labels in requested order.
Response given: P, Q, R

====

- TARGET_OR_TEST_SYSTEM: PDGFR (Homo sapiens)
- Construct: SUGEN, Inc; host or cells: NIH 3T3 cell lysate; receptor captured on plate with monoclonal anti-PDGFR antibody 28D4C10
- Sequence (P09619 33-1106, species assumed): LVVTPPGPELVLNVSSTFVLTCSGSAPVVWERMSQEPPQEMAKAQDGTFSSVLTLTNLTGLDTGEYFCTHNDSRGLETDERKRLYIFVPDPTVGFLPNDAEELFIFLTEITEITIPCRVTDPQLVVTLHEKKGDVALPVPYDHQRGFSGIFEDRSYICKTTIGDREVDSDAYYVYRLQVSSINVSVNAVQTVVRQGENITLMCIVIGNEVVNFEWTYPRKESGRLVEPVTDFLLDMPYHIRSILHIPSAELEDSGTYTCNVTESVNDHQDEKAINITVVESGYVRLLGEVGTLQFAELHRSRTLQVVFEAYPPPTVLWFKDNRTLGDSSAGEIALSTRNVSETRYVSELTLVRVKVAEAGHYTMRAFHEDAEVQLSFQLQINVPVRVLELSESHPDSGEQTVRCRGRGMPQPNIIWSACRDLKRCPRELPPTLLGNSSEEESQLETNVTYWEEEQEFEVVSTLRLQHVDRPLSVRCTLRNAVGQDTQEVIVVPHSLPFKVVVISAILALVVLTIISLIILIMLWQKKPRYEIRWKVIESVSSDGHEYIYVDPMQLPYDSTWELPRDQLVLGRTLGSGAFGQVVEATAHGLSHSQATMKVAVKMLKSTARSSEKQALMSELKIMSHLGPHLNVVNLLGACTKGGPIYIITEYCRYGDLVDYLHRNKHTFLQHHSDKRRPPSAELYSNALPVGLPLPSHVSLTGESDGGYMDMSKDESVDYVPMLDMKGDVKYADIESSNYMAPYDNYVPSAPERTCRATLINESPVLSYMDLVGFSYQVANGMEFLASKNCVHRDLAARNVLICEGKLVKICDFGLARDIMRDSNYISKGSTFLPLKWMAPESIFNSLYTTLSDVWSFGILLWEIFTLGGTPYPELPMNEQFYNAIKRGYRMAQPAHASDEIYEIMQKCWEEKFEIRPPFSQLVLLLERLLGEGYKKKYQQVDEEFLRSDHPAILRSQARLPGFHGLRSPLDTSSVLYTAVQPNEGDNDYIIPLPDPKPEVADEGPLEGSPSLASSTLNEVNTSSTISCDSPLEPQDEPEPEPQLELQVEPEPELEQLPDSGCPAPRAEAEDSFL
- ASSAY_NOTES: PDGFR bioassay (ELISA, in vitro kinase activity)
- Type: biochemical
- DETAILS: PDGFR-β expressing NIH 3T3 cell lysate; read-out: IC50 (μM) PDGF-R
OUTCOME_MEASURE: IC50 (µM)

MOLECULE: O=C(Nc1ccc(Nc2ncc(-c3ccsc3)cn2)cc1)N1CCC(N2CCCC2)CC1 [Example 30]
TARGET_OR_TEST_SYSTEM: PDGFR (Homo sapiens)
IC50 (µM): 0.5

MOLECULE: O=C(O)c1cccc(Nc2ncc(-c3ccsc3)cn2)c1 [Example 7]
TARGET_OR_TEST_SYSTEM: PDGFR (Homo sapiens)
IC50 (µM): 7.39

MOLECULE: CCN(CC)CCNC(=O)Nc1ccc(Nc2ncc(-c3ccsc3)cn2)cc1 [Example 32]
TARGET_OR_TEST_SYSTEM: PDGFR (Homo sapiens)
IC50 (µM): 0.53

MOLECULE: Oc1ccc(Nc2ncc(-c3ccsc3)cn2)cc1 [Example 1]
TARGET_OR_TEST_SYSTEM: PDGFR (Homo sapiens)
IC50 (µM): 0.52

[1] O=C(CNCCN1CCOCC1)Nc1ccc(Nc2ncc(-c3ccsc3)cn2)cc1 [Example 25]
[2] CN1CCN(Cc2ccc(C(=O)Nc3ccc(Nc4ncc(-c5ccsc5)cn4)cc3)cc2)CC1 [Example 12]
[3] O=C(CN1CCOCC1)Nc1ccc(Nc2ncc(-c3ccsc3)cn2)cc1 [Example 26]
Challenge: List from greatest to least IC50. Lab note: record answer as labels in requested order.
Response given: 3, 1, 2
(3: 1.1 µM, 1: 0.47 µM, 2: 0.26 µM)

====

- TARGET_OR_TEST_SYSTEM: GST-Flk1 (Mus musculus)
- Construct: GST-Flk1cd purified from sf9 recombinant baculovirus transformation (SUGEN, Inc.); host or cells: Sf9 insect cells (recombinant baculovirus)
- ASSAY_NOTES: GST-FLK-1 bioassay (ELISA, tyrosine kinase activity on poly(glu,tyr))
- Type: biochemical
OUTCOME_MEASURE: IC50 (µM)

COMPOUND: O=C(CNCCN1CCS(=O)(=O)CC1)Nc1cccc(Nc2ncc(-c3ccsc3)cn2)c1
TARGET_OR_TEST_SYSTEM: GST-Flk1 (Mus musculus)
UNIT_NAME: µM
IC50: 2.4
//
COMPOUND: O=C(CN1CCCC1)Nc1cccc(Nc2ncc(-c3ccsc3)cn2)c1
TARGET_OR_TEST_SYSTEM: GST-Flk1 (Mus musculus)
UNIT_NAME: µM
IC50: 2.8
//
COMPOUND: O=C(CNCCN1CCOCC1)Nc1ccc(Nc2ncc(-c3ccsc3)cn2)cc1
TARGET_OR_TEST_SYSTEM: GST-Flk1 (Mus musculus)
UNIT_NAME: µM
IC50: 5.4
//
COMPOUND: O=C(CN1CCC(O)CC1)Nc1ccc(Nc2ncc(-c3ccsc3)cn2)cc1
TARGET_OR_TEST_SYSTEM: GST-Flk1 (Mus musculus)
UNIT_NAME: µM
IC50: 4.9
//
COMPOUND: Nc1ccc(Nc2ncc(-c3ccsc3)cn2)cc1
TARGET_OR_TEST_SYSTEM: GST-Flk1 (Mus musculus)
UNIT_NAME: µM
IC50: 4.14
//
COMPOUND: O=C(Nc1cccc(Nc2ncc(-c3ccsc3)cn2)c1)N1CCCC1CN1CCCC1 (centres unmarked)
TARGET_OR_TEST_SYSTEM: GST-Flk1 (Mus musculus)
UNIT_NAME: µM
IC50: 3.5

[P] Cc1ccc(Nc2ncc(-c3ccsc3)cn2)cc1NC(=O)c1ccc(CN2CCN(C)CC2)cc1
[Q] O=C(CN1CCOCC1)Nc1cccc(Nc2ncc(-c3ccsc3)cn2)c1
[R] CN1CCN(CC(=O)Nc2ccc(Nc3ncc(-c4ccsc4)cn3)cc2)CC1
[S] CCN(CC)CCNC(=O)Nc1cccc(Nc2ncc(-c3ccsc3)cn2)c1
Challenge: List from greatest to least IC50. Lab note: record answer as labels in requested order.
Response given: P, R, Q, S

[1] CC(C)Nc1cccc(Nc2ncc(-c3ccsc3)cn2)c1
[2] CN1CCN(Cc2ccc(C(=O)Nc3ccc(Nc4ncc(-c5ccsc5)cn4)cc3)cc2)CC1
[3] CC(=O)Nc1ccc(Nc2ncc(-c3cccs3)cn2)cc1
[4] O=C(NCCN1CCS(=O)(=O)CC1)Nc1cccc(Nc2ncc(-c3ccsc3)cn2)c1
Challenge: List from greatest to least IC50. Lab note: record answer as labels in requested order.
Response given: 3, 1, 2, 4

[A] Oc1ccc(Nc2ncc(-c3ccsc3)cn2)cc1
[B] O=C(CNCCN1CCOCC1)Nc1cccc(Nc2ncc(-c3ccsc3)cn2)c1
Challenge: Among A and B , whose measured IC50 is the smaller figure? Identify your pick by its label.
Response given: B

====

- TARGET_OR_TEST_SYSTEM: PDGFR (Homo sapiens)
- Construct: SUGEN, Inc; host or cells: NIH 3T3 cell lysate; receptor captured on plate with monoclonal anti-PDGFR antibody 28D4C10
- ASSAY_NOTES: PDGFR bioassay (ELISA, in vitro kinase activity)
- Assay type: biochemical
- DETAILS: PDGFR-β expressing NIH 3T3 cell lysate; read-out: IC50 (μM) PDGF-R
OUTCOME_MEASURE: IC50 (µM)

Worked examples follow.
MOLECULE: CN1CCN(CC(=O)Nc2ccc(Nc3ncc(-c4ccsc4)cn3)cc2)CC1
OUTCOME_MEASURE: IC50
QUANTITATIVE_READOUT: 0.55
--
MOLECULE: O=C(CNCC(O)CN1CCOCC1)Nc1cccc(Nc2ncc(-c3ccsc3)cn2)c1 (centres unmarked)
OUTCOME_MEASURE: IC50
QUANTITATIVE_READOUT: 0.09

[P] CCN(CC)c1cccc(Nc2ncc(-c3ccsc3)cn2)c1
[Q] Nc1ccc(C(=O)Nc2ccc(Nc3ncc(-c4cccs4)cn3)cc2)cc1
Challenge: Among P and Q , whose measured IC50 is the smaller figure? Identify your pick by its label.
Response given: Q

====

- TARGET_OR_TEST_SYSTEM: PDGFR (Homo sapiens)
- Construct: SUGEN, Inc; host or cells: NIH 3T3 cell lysate; receptor captured on plate with monoclonal anti-PDGFR antibody 28D4C10
- ASSAY_NOTES: PDGFR bioassay (ELISA, in vitro kinase activity)
- Assay type: biochemical
- DETAILS: PDGFR-β expressing NIH 3T3 cell lysate; read-out: IC50 (μM) PDGF-R
OUTCOME_MEASURE: IC50 (µM)

Worked examples follow.
MOLECULE: CCN(CC)CCNC(=O)Nc1cccc(Nc2ncc(-c3ccsc3)cn2)c1
QUANTITATIVE_READOUT: 0.16
//
MOLECULE: c1cc(-c2cnc(Nc3ccc(N4CCOCC4)cc3)nc2)cs1
QUANTITATIVE_READOUT: 0.15
//
MOLECULE: CN1CCN(C(=O)Nc2ccc(Nc3ncc(-c4ccsc4)cn3)cc2)CC1
QUANTITATIVE_READOUT: 0.47
//
MOLECULE: O=C(NCCN1CCOCC1)Nc1cccc(Nc2ncc(-c3ccsc3)cn2)c1
QUANTITATIVE_READOUT: 0.14
//
MOLECULE: O=C(CN1CCCC1CN1CCCC1)Nc1cccc(Nc2ncc(-c3ccsc3)cn2)c1 (stereo not shown)
QUANTITATIVE_READOUT: 0.18
//
MOLECULE: CC(=O)Nc1cccc(Nc2ncc(-c3cccs3)cn2)c1
QUANTITATIVE_READOUT: 0.94

[a] O=C(NCC(O)CN1CCOCC1)Nc1cccc(Nc2ncc(-c3ccsc3)cn2)c1 (stereo not shown)
[b] Nc1ccc(C(=O)Nc2ccc(Nc3ncc(-c4ccsc4)cn3)cc2)cc1
Challenge: Out of a and b , name the one with the higher IC50. Identify your pick by its label.
Response given: b
